Origin of values: patent US20170173132A1

Task for the reader: assign each of the following binders its reported peptide exchange yield.
# testedOn: T1, HLA-A*02:01 (peptide-receptive MHC class I molecule, heavy chain with β2m light chain) (human)
# T1 construct: The UV-sensitive placeholder peptide is cleaved on irradiation and exchanged for the tested peptide
# methodDescription: UV-ligand exchange, anti-β2m ELISA; grade of peptide exchange yield (≥10% = +; ≥20% = ++; ≥50 = +++; ≥75% = ++++)
Square brackets hold non-standard residues; d marks the D form. Ends that are not written are not given here. pT = C[C@@H](OP(=O)(O)O)[C@H](N)C(=O)O

The cases that follow already have their peptide exchange yield on record.
SLADAVEKV [peptide SLADAVEKV]: 50 to 75%
KLYEGIPVL [peptide KLYEGIPVL]: 20 to 50%
ILFDVVVFL [peptide ILFDVVVFL]: 20 to 50%
ILTELPPGV [peptide ILTELPPGV]: 20 to 50%
YILLQSPQL [peptide YILLQSPQL]: 50 to 75%

Fill in peptide exchange yield for each of the 2 binders listed.
1. FLSSEAANV [peptide FLSSEAANV]
2. SLFPSLVVV [peptide SLFPSLVVV]

1. 20 to 50%
2. 50 to 75%

Give peptide exchange yield for each listed item.
1. ALEEQLHQV [peptide ALEEQLHQV]
2. GLLPTSVSPRV [peptide GLLPTSVSPRV]

1. 20 to 50%
2. 20 to 50%

Answer for every listed entry: what is its peptide exchange yield? The entries follow.
1. FIIPTVATA [peptide FIIPTVATA]
2. ALEA[pT]QLYL [peptide ALEAUQLYL]
3. GLVATLQSL [peptide GLVATLQSL]
4. GLVQSLTSI [peptide GLVQSLTSI]

1. ≥ 75%
2. 50 to 75%
3. 50 to 75%
4. ≥ 75%
